Listing of entries alongside the reported melting point.

Below, 3 molecules whose answers are already recorded.
CC(C)(C)CN(Cc1cc2nc(-c3cccc4[nH]ncc34)nc(N3CCOCC3)c2s1)c1ncc(C(=O)NO)cn1 [Compound 83]: 240 to 242 °C
COCc1cccc(-c2nc(N3CCOCC3)c3sc(CN(C)c4ncc(C(=O)NO)cn4)cc3n2)c1 [Compound 139]: 178 to 181 °C
CN(Cc1cc2nc(-c3cccc(N)c3)nc(N3CCOCC3)c2s1)c1ncc(C(=O)NO)cn1 [Compound 134]: 179 to 182 °C

# input for lookup
Recorded melting point for CN(CCCCC(=O)NO)Cc1cc2nc(-c3cccc4[nH]ncc34)nc(N3CCOCC3)c2s1 [Compound 102] , please?
120 to 122 °C
